Origin of measurements: ChEMBL document CHEMBL4406886

# target: Epidermal growth factor receptor (Homo sapiens)
# test-summary: Inhibition of EGFR (unknown origin) at 1 uM using poly (Glu,Tyr) 4:1 as substrate measured after 1 hr in presence of ATP by spectrophotometric analysis relative to control
inhibition for assorted compounds
readout-label: inhibition (%)

smiles-entry: O=C(Nc1cccc(Nc2ccc([N+](=O)[O-])c3ncnc(O)c23)c1)c1ccc(Cl)cc1
readout-label: inhibition
data-value: 9.4
--
smiles-entry: Cc1ccccc1C(=O)Nc1cccc(Nc2ccc([N+](=O)[O-])c3ncnc(O)c23)c1
readout-label: inhibition
data-value: 6.4
--
smiles-entry: O=C(Nc1cccc(Nc2ccc([N+](=O)[O-])c3ncnc(O)c23)c1)c1ccccc1
readout-label: inhibition
data-value: 15.4
--
smiles-entry: O=C(Nc1ccc(Nc2ccc([N+](=O)[O-])c3ncnc(O)c23)cc1)Nc1cc(C(F)(F)F)ccc1Cl
readout-label: inhibition
data-value: 21.8
--
smiles-entry: O=C(Nc1cccc(Nc2ccc([N+](=O)[O-])c3ncnc(O)c23)c1)c1ccc(F)cc1
readout-label: inhibition
data-value: 18.5
--
smiles-entry: O=C(Nc1ccc(Nc2ccc([N+](=O)[O-])c3ncnc(O)c23)cc1)c1ccccc1
readout-label: inhibition
data-value: 53.8
--
smiles-entry: O=C(Nc1ccc(Nc2ccc([N+](=O)[O-])c3ncnc(O)c23)cc1)c1cccc(Cl)c1
readout-label: inhibition
data-value: 27.7
--
smiles-entry: O=C(Nc1ccc(Nc2ccc([N+](=O)[O-])c3ncnc(O)c23)cc1)c1cccc(F)c1
readout-label: inhibition
data-value: 36.9
--
smiles-entry: COc1ccccc1C(=O)Nc1ccc(Nc2ccc([N+](=O)[O-])c3ncnc(O)c23)cc1
readout-label: inhibition
data-value: 43.6
--
smiles-entry: O=C(Nc1ccc(Nc2ccc([N+](=O)[O-])c3ncnc(O)c23)cc1)c1ccc(Cl)cc1
readout-label: inhibition
data-value: 64.1
--
smiles-entry: COc1cccc(C(=O)Nc2ccc(Nc3ccc([N+](=O)[O-])c4ncnc(O)c34)cc2)c1
readout-label: inhibition
data-value: 36.7
--
smiles-entry: O=C(Nc1cccc(Nc2ccc([N+](=O)[O-])c3ncnc(O)c23)c1)c1cccc(Cl)c1
readout-label: inhibition
data-value: 26.3
--
smiles-entry: Cc1ccccc1C(=O)Nc1ccc(Nc2ccc([N+](=O)[O-])c3ncnc(O)c23)cc1
readout-label: inhibition
data-value: 41.7
--
smiles-entry: O=C(Nc1ccc(Nc2ccc([N+](=O)[O-])c3ncnc(O)c23)cc1)c1ccccc1F
readout-label: inhibition
data-value: 42.1
--
smiles-entry: Cc1ccc(C(=O)Nc2ccc(Nc3ccc([N+](=O)[O-])c4ncnc(O)c34)cc2)cc1
readout-label: inhibition
data-value: 57.2
--
smiles-entry: O=C(Nc1ccc(Nc2ccc([N+](=O)[O-])c3ncnc(O)c23)cc1)c1ccc(F)cc1
readout-label: inhibition
data-value: 69.2
--
smiles-entry: Cc1cccc(C(=O)Nc2ccc(Nc3ccc([N+](=O)[O-])c4ncnc(O)c34)cc2)c1
readout-label: inhibition
data-value: 37.8
--
smiles-entry: O=C(Nc1cccc(Nc2ccc([N+](=O)[O-])c3ncnc(O)c23)c1)c1ccccc1Cl
readout-label: inhibition
data-value: 22.5
--
smiles-entry: COc1ccccc1C(=O)Nc1cccc(Nc2ccc([N+](=O)[O-])c3ncnc(O)c23)c1
readout-label: inhibition
data-value: 12.4
--
smiles-entry: O=C(Nc1cccc(Nc2ccc([N+](=O)[O-])c3ncnc(O)c23)c1)c1ccccc1F
readout-label: inhibition
data-value: 17.2
--
smiles-entry: O=C(Nc1cccc(Nc2ccc([N+](=O)[O-])c3ncnc(O)c23)c1)c1cccc(F)c1
readout-label: inhibition
data-value: 27.3
--
smiles-entry: Cc1ccc(C(=O)Nc2cccc(Nc3ccc([N+](=O)[O-])c4ncnc(O)c34)c2)cc1
readout-label: inhibition
data-value: 12.8
--
smiles-entry: O=C(Nc1ccc(Nc2ccc([N+](=O)[O-])c3ncnc(O)c23)cc1)c1ccccc1Cl
readout-label: inhibition
data-value: 50.3
--
smiles-entry: Cc1cccc(C(=O)Nc2cccc(Nc3ccc([N+](=O)[O-])c4ncnc(O)c34)c2)c1
readout-label: inhibition
data-value: 11.3
